# target desc: Voltage-gated potassium channel subunit beta-2 (Rattus norvegicus) (UniProt P62483)
# Sequence (P62483 whole entry, looked up): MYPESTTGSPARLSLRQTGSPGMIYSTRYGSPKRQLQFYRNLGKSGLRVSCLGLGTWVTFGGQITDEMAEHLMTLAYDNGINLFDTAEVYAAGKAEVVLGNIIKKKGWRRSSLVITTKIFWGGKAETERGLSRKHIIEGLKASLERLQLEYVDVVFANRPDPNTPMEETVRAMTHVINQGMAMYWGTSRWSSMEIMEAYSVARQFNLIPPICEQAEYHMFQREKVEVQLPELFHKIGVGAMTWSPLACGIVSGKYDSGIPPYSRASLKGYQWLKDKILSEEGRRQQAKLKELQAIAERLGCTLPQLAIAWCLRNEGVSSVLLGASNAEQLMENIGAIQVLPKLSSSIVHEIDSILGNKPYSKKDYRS
# assay details: KvBeta enzyme negative modulators, primary screen, biochemical, NADPH fluorescence (AID 622);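 note: slope of raw intensity against log time taken from 70 to 1610 s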
# conditions: recombinant KvBeta, 4-cyanobenzaldehyde reduction, at 10 µM, stronger effect = higher value

| compound | fluorescence slope |
| --- | --- |
| c1cc2c(cc1C1=Nn3c(nnc3C3CCCCC3)SC1)OCO2 | -0.481 |
| CN1CCN(C2=Nc3ccccc3Oc3ccc(Cl)cc32)CC1 | -0.437 |
| CC(=O)Nc1ccc(Oc2ccc3nc(C)[nH]c3c2)cc1 | -0.504 |
| O=C(c1ccc(F)cc1)N1CCC(N2CCCCCC2)CC1 | -0.395 |
| Cn1c(=O)c2c(nc(SCCN3CCCCC3)n2Cc2ccc(Cl)cc2)n(C)c1=O | -0.526 |
| Clc1ccccc1CN1CCc2sccc2C1 | -0.439 |
| COc1cccc(OC)c1OCCN1CCN(C(=O)c2ccco2)CC1 | -0.538 |
| Cc1nnc(C)n1/N=C/c1cc(Br)cc(Br)c1O | -0.368 |
| Clc1ccc(SCc2cn3ccsc3n2)cc1 | -0.476 |
| O=C(Nc1ccc2c(c1)OCO2)c1cncc(Br)c1 | -0.419 |
| Cc1nnc(SCC(=O)N2CCC(C(N)=O)CC2)s1 | -0.418 |
| Nc1ccc2[nH]ncc2c1 | -0.496 |
| Cc1cc(C)nc(N(C#N)CC(=O)N(c2ccccc2)C(C)C)n1 | -0.345 |
| Cc1cc(C)n(S(=O)(=O)Cc2ccccc2)n1 | -0.531 |
| CC(C)OC(=O)[C@H]1[C@H](c2ccc(Cl)cc2)[C@@](C#N)(C(N)=O)[C@@H]2C=CC(C(N)=O)=CN21 | -0.335 |
| Cc1cc(=O)oc2cc(OCCSCCN3CCOCC3)ccc12 | -0.358 |
| COCCCNC(=O)C(C#N)c1nc2ccccc2nc1N1CCN(Cc2ccccc2)CC1 (centres undefined) | -0.472 |
| CSc1nc(N)nc(SCC(=O)OC(C)C)c1C#N | -0.371 |
| COc1ccc(/C(O)=C2\C(=O)C(=O)N(c3cc(C)on3)C2c2cccc(OC)c2OC)cc1C (centres undefined) | -0.5 |
| COc1ccc(CCNc2nc3c(c(=O)n(C)c(=O)n3C)n2C)cc1OC | -0.425 |
| COCCNC(=O)c1c(N)n(CCC2=CCCCC2)c2nc3ccccc3nc12 | -0.0792 |
| CCOC(=O)Cc1nnc(Nc2cccc(O)c2)c2ccccc12 | -0.457 |
| CC(=O)OC12CC3CC(C1)C(=NO)C(C3)C2 | -0.512 |
| COc1ccccc1N1CCN(C2CCN(C(=O)c3cccs3)CC2)CC1 | -0.397 |

###

# assay details: inhibitors of E-selectin induction by TNFa, primary screen, imaging, HUVEC, immunofluorescence, MLSMR starter and 10KST1 sets (AID 487);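 note: 100% = median nuclei count of all wells on the same plate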
# conditions: HUVEC TNFalpha-induced E-selectin immunofluorescence imaging, at 2 µM; measured here: cell number, toxicity
quantity measured: nuclei count (%)

| molecule | quantity measured | value reported |
| --- | --- | --- |
| CC(=O)OCC(=O)[C@@]1(O)CC[C@H]2[C@@H]3CCC4=CC(=O)CC[C@]4(C)[C@H]3C(=O)C[C@@]21C | nuclei count | 97.4 |
| CSc1nc(N)nc(SCC(=O)OC(C)C)c1C#N | nuclei count | 76.9 |
| Cc1noc(COc2ccccc2OCC(O)CNC(C)(C)C)n1 (centres undefined) | nuclei count | 128 |
| CCCCc1nc2n[nH]c(N)c2c2c1CCCC2 | nuclei count | 124 |
| CCCOc1ccc(Cn2c(O)cc(=O)[nH]c2=O)cc1 | nuclei count | 188 |
| CCn1c(SCC(=O)O)nc2sc3c(c2c1=O)CCC3 | nuclei count | 171 |
| CC(=O)c1cc(CN2CCCCC2)cc(OC(C)C)c1 | nuclei count | 172 |
| CSc1ccccc1NC(=O)c1c(Br)cnn1C | nuclei count | 130 |
| Cc1cc(C)nc(N(C#N)CC(=O)N(c2ccccc2)C(C)C)n1 | nuclei count | 140 |
| CN1CCN(/C=N/c2sc3c(c2C#N)CCCCC3)CC1 | nuclei count | 108 |
| CCCCCCn1c(SCCN2CCOCC2)nc2c1c(=O)[nH]c(=O)n2C | nuclei count | 139 |
| CN(CCO)CC(O)Cn1cnc2c1c(=O)n(C)c(=O)n2C (centres undefined) (tested in a mixture with another compound) | nuclei count | 125 |
| O=C(O)CC(SCc1ccc(C(=O)O)o1)C(=O)O (centres undefined) | nuclei count | 105 |
| COC(=O)c1cc(Br)c(=O)n(Cc2cccnc2)c1 | nuclei count | 109 |
| CCN(CC)CCCn1c(C)cc2c(c1=O)C(c1cccc(Cl)c1)C(C#N)=C(N)O2 (centres undefined) | nuclei count | 146 |
| CCc1nc2sc3c(c2c(=O)o1)CCCC3 | nuclei count | 130 |
| CCCCOc1cccc(-c2nnc(N)s2)c1 | nuclei count | 161 |
| COC(=O)c1cc2c(=O)n3cccc(C)c3nc2n(Cc2cccnc2)c1=N | nuclei count | 159 |
| COc1c(O)ccc2cnn(-c3ccccc3C)c(=O)c12 | nuclei count | 180 |
| CC(=O)C1=C(O)C(=O)N(c2ccc(C(=O)O)cc2)C1c1ccccc1 (centres undefined) | nuclei count | 112 |
| CCO/C(C)=N/n1c2nc3ccccc3nc2c2c(=O)n(CC(C)C)c(C)nc21 | nuclei count | 145 |
| O=c1[nH]c(CN2CCCCC2)nc2c1C1(CCCCC1)Cc1ccccc1-2 | nuclei count | 104 |
| O=C(NCC(F)(F)F)N1CCOCC1 | nuclei count | 102 |
| C1CNCCNCCNCCN1 | nuclei count | 105 |

###

# assay details: inhibitors of Chlamydomonas gravitaxis, primary screen, whole organism, Chlamydomonas reinhardtii, WT vs cilia-less mutant, absorbance, 96-well (AID 463189);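 note: 0% = wild type cc124 cells in DMSO and 100% = ciliumless bld1 mutant cells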
# conditions: OD600 absorbance, 2 days, at 10 µM, stronger effect = higher value

| compound | inhibition [%] |
| --- | --- |
| Fc1ccc(OCCOCCNCC2CCCO2)cc1 (stereo not drawn) | 43.6 |
| COc1ccc(Nc2cc(C)nc3ccccc23)cc1 | 17.6 |
| CNS(=O)(=O)c1cccc2nsnc12 | 11.1 |
| O=C(O)C1CCCCN1S(=O)(=O)c1cccc2nsnc12 (stereo not drawn) | -16.5 |
| c1ccc(OCc2nn3c(-c4ccco4)nnc3s2)cc1 | 7.84 |
| CCOC(=O)c1[nH]c2ccc(OC)cc2c1NC(=O)CN1CCN(c2ccccn2)CC1 | -9.68 |
| Brc1ccc(-c2cnc3n2CCCC3)cc1 | 142 |
| CC(=O)O[C@]1(C(C)=O)CC[C@H]2[C@@H]3C=C(C)C4=CC(=O)CC[C@]4(C)[C@H]3CC[C@@]21C | 1.32 |
| C=CCN(C(=O)CCC(=O)O)C1CC(=O)N(c2ccc(OCCC)cc2)C1=O (stereo not drawn) | 6.01 |
| NS(=O)(=O)c1cc2c(cc1C(F)(F)F)NC(Cc1ccccc1)NS2(=O)=O (stereo not drawn) | -16.5 |
| COc1ccc(C2C(C#N)=C(N)Oc3n[nH]c(C)c32)cc1CSc1ccccn1 (stereo not drawn) | -9.39 |
| CCC(=O)Nc1cc(-c2nn(C)c(=O)c3ccccc23)ccc1N1CCCCC1 | 25.8 |
| O=C1C(CCS(=O)c2ccccc2)C(=O)N(c2ccccc2)N1c1ccccc1 (stereo not drawn) | -7.13 |
| Cc1nc2c(c(=O)n1CC1CCCO1)c1nc3ccccc3nc1n2Cc1ccc2c(c1)OCO2 (stereo not drawn) | 9.64 |
| Cc1nc(/N=C(\N)Nc2ccccc2)nc2ccccc12 | 7.3 |
| CCCCCSc1nc(O)cc(=O)[nH]1 | -10.7 |
| Cc1ccc(-c2nn3c(-c4cccc(Cl)c4)nnc3s2)cc1 | 26.8 |
| CC(C)(C)OC(=O)N1CC=C2C(C#N)=C(N)C(C#N)(C#N)[C@H](c3cccnc3)[C@H]2C1 | 2.34 |
| Cc1oc2cc(O)cc(C)c2c(=O)c1-c1cnn(-c2ccccc2)c1 | 20.5 |
| CCC(C(=O)Nc1ncn[nH]1)(C(F)(F)F)C(F)(F)F | 27.8 |
| NS(=O)(=O)c1cc2c(cc1Cl)NC(C(Cl)Cl)NS2(=O)=O (stereo not drawn) | 3.47 |
| COC(=O)c1sc(NC(=O)C(C)C)c(C(=O)OC)c1C | -7.45 |
| CCCCCCn1c(SCCN2CCOCC2)nc2c1c(=O)[nH]c(=O)n2C | 27.5 |

###

# target desc: Voltage-gated potassium channel subunit beta-2 (Rattus norvegicus)
# assay details: KvBeta positive modulators, primary screen, biochemical, NADPH fluorescence (AID 623);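 note: fluorescence intensity change per second fitted from 20 to 320 s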
# conditions: Recombinant KvBeta, NADPH fluorescence decrease slope, 10 min; at 10 µM; stronger effect = lower value
Listing: NADPH fluorescence slope of selected compounds
quantity measured: NADPH fluorescence slope

| compound | value reported |
| --- | --- |
| CCN1CCc2c(C#N)c(N3CCOCC3)nc(NCCO)c2C1 | -9.7e-05 |
| CCOc1ccc2c(C)nc(NC3=NC(C)(C)C=C(C)N3)nc2c1 | -4.2e-05 |
| CC/C(=N\O)c1ccc(OC)c(OC)c1 | -0.000183 |
| OC[C@H]1O[C@@H](n2cnc3c(NC4CCCC4)ncnc32)[C@H](O)[C@@H]1O | 2.3e-05 |
| CC(C)NC(=O)N1CCOCCOCCN(C(=O)NC(C)C)CCOCCOCC1 | -6.1e-05 |
| CCCC(=O)N1CCN(c2nc(CC(C)C)c3c(c2C#N)CCC3)CC1 | -1.9e-05 |
| CCCC(=O)Nc1ccc(OCC(O)CNC(C)C)c(C(C)=O)c1 (stereo not drawn) | 3e-05 |
| C/C=C/c1ccccc1OCc1ccc(C(=O)O)o1 | -6.2e-05 |
| COc1ccc2[nH]c(C)c(C(=O)CN3CC(C)OC(C)C3)c2c1 (stereo not drawn) | 2.2e-05 |
| OCCCc1nc2ccccc2n1CCc1ccccc1 | -4.3e-05 |
| O=C(NC1(C(F)(F)F)C(=O)Nc2c1c(=O)[nH]c(=O)n2-c1ccccc1)c1cccnc1 (stereo not drawn) | -2.5e-05 |
| Cc1cc(C)nc(N(C#N)S(=O)(=O)c2ccccc2Cl)n1 | -3.7e-06 |
| COc1ccccc1-c1nn2c(-c3ccco3)nnc2s1 | -8.7e-05 |
| Cn1c(-n2c(-c3ccco3)nc3ccccc3c2=O)nc2ccccc21 | -6.3e-06 |
| CCOc1ccc(C2C(C(=O)c3ccc(C)o3)=C(O)C(=O)N2CCN2CCOCC2)cc1OC (stereo not drawn) | -2.1e-05 |
| O=S1(=O)C[C@@H](N2CCOCC2)[C@H](N2CCOCC2)C1 | -7.3e-05 |
| C=CCN(C(=O)CCC(=O)O)C1CC(=O)N(c2ccc(OCCC)cc2)C1=O (stereo not drawn) | -2.5e-05 |
| CC1(C)CC(=O)C2=C(C1)Oc1nc3ccccc3cc1C2C(C#N)C#N (stereo not drawn) | -0.000128 |
| COC(=O)Nc1nc2ccc(Sc3ccccc3)cc2[nH]1 | -5.5e-05 |
| CCOc1ccc(/C(O)=C2/C(=O)C(=O)N(CCN(CC)CC)C2c2ccco2)cc1 (stereo not drawn) | -4.6e-05 |
| COc1ccc(-c2cc3nc4n(c(=O)c3s2)CCOC4)cc1 | -1.6e-05 |
| O=C(O)CCCCCN1C(=O)CCC1=O | -0.000125 |
| CN(Cc1c(O)ccc2c1oc(=O)c1ccccc12)C1CCCCC1 | -7e-05 |

// data source = PubChem BioAssay
